- Tested system: Lysine-specific demethylase 4A (Homo sapiens, UniProt O75164)
- Sequence (O75164 whole entry): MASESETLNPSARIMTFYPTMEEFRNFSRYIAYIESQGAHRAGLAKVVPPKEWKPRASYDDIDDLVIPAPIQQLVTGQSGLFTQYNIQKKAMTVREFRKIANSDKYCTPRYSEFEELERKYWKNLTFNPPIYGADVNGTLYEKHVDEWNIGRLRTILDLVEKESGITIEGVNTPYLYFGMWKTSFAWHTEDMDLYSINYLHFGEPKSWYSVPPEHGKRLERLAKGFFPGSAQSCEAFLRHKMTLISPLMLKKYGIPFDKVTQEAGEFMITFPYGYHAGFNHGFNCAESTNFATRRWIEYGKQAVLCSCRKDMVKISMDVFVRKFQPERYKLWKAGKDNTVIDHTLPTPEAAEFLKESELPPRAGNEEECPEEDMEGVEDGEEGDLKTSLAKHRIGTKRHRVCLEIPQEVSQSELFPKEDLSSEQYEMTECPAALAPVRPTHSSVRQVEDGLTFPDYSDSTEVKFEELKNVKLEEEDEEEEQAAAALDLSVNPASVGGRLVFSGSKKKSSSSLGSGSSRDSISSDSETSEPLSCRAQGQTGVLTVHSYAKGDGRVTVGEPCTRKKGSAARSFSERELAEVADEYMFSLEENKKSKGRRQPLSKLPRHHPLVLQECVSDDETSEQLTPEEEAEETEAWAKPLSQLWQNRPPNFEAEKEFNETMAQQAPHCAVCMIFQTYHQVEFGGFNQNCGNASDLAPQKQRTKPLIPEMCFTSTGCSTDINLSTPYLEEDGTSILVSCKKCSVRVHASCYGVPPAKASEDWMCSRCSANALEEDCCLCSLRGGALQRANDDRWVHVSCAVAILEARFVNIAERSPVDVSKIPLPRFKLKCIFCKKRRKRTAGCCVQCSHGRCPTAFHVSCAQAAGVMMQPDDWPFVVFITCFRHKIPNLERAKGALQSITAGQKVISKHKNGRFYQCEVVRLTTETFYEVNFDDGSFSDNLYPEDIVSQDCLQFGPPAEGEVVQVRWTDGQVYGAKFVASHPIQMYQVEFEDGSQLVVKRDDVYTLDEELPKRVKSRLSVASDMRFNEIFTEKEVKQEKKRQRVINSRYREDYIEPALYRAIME
pIC50: −log10 of the molar value.

{"Molecule smiles": "O=c1[nH]c(Oc2cnn(Cc3ccccc3)c2)nc2ncccc12", "Bound operator": "<", "pIC50": 4.00}
{"Molecule smiles": "CC(C)c1ccc(Oc2nc3cnccc3c(=O)[nH]2)cn1", "Bound operator": "=", "pIC50": 5.80}

====

Each record here notes measured IC50.
- Tested system: Lysine-specific demethylase 4C (Homo sapiens, UniProt Q9H3R0)
- Sequence (Q9H3R0 whole entry): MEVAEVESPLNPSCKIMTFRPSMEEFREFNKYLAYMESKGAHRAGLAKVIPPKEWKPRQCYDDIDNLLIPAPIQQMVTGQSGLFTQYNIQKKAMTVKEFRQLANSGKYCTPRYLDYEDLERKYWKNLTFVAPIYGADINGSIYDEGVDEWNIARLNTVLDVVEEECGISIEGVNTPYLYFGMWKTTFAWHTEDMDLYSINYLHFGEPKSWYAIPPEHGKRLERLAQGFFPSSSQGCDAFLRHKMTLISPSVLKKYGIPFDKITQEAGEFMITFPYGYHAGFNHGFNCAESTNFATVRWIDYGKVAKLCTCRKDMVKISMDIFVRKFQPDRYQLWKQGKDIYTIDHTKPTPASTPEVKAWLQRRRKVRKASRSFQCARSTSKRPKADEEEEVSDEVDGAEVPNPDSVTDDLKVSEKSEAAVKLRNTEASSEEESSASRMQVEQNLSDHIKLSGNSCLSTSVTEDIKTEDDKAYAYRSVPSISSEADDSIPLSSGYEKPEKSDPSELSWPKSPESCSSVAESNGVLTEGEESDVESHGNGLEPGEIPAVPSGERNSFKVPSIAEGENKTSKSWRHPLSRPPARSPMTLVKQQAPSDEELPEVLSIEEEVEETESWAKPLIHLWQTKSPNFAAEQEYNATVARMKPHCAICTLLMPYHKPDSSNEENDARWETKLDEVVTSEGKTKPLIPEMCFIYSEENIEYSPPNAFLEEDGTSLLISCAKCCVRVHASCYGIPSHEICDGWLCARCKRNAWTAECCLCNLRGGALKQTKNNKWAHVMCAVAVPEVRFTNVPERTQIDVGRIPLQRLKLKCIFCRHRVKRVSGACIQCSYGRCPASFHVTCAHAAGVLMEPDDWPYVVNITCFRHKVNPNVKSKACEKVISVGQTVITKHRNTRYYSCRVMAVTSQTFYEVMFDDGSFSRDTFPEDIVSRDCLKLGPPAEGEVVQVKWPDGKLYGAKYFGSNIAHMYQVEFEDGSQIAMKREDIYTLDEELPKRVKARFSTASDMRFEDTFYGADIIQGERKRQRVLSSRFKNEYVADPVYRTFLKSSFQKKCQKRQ
- Experimental details: Inhibition of N-terminal his-tagged human KDM4C expressed in Escherichia coli BL21(DE3) using trimethylated peptide substrate by RFMS assay

{"Molecule smiles": "O=c1[nH][nH]c2cnccc12", "IC50": "> 100000 nM"}
{"Molecule smiles": "O=c1[nH]c(OCc2ccccc2)nc2cnccc12", "IC50": "2000 nM"}
{"Molecule smiles": "O=c1[nH]c(OC2CCCCC2)nc2cnccc12", "IC50": "3160 nM"}
{"Molecule smiles": "CC(C)c1ccc(Oc2nc3cnccc3c(=O)[nH]2)cn1", "IC50": "1000 nM"}
{"Molecule smiles": "O=c1ncn(CCCc2ccccc2)c2cnccc12", "IC50": "≥ 100000 nM"}
{"Molecule smiles": "O=c1[nH]ccc2cnccc12", "IC50": "> 100000 nM"}
{"Molecule smiles": "COc1cccc(Cn2cc(Oc3nc4cnccc4c(=O)[nH]3)cn2)c1", "IC50": "631 nM"}
{"Molecule smiles": "O=c1[nH]c(Oc2cnn(C3CCCCCC3)c2)nc2cnccc12", "IC50": "501 nM"}
{"Molecule smiles": "O=c1[nH]ncc2cnccc12", "IC50": "> 100000 nM"}
{"Molecule smiles": "O=c1[nH]c(Oc2cnn(Cc3ccccc3)c2)nc2ncccc12", "IC50": "> 100000 nM"}
